For KIT (Homo sapiens), measured Kd is reported for the entries below.
Where a name gives a salt, the structure may show the parent alone.

Here are 3 compounds together with their reported answers.
CCN1CCN(CCCc2ccc3c(c2)sc2nc(-c4ccc(NC(=O)Nc5cc(C(C)(C)C)on5)cc4)cn23)CC1 [Compound D1, hydrochloride] = < 10 nM
O=C(Cc1noc2ccccc12)Nc1ccc(-c2cn3c(n2)sc2cc(OCCN4CCOCC4)ccc23)cc1 [Compound E2] = 10 to 100 nM
CN(C(=O)Nc1cc(C(C)(C)C)on1)c1ccc(-c2cn3c(n2)sc2cc(CCCN4CCOCC4)ccc23)cc1 [Compound D2] = < 10 nM

Problem: Can you look up Kd on KIT (Homo sapiens) for CN1CCN(C(=O)c2ccc3c(c2)sc2nc(-c4ccc(NC(=O)Nc5cc(C(C)(C)C)on5)cc4)cn23)CC1 [Compound C25, hydrochloride] ?
Result: < 10 nM

Problem: Can you look up Kd on KIT (Homo sapiens) for CC(C)(C)c1cc(NC(=O)Nc2cccc(-c3cn4c(n3)sc3cc(OCCN5CCOCC5)ccc34)c2)no1 ?
Result: > 1000 nM

Problem: Can you look up Kd on KIT (Homo sapiens) for CC(C)(C)c1cc(NC(=O)Nc2ccc(-c3cn4c(n3)sc3cc(CCN5CCCCC5)ccc34)cc2)no1 [Compound D6, hydrochloride] ?
Result: < 10 nM

Problem: Can you look up Kd on KIT (Homo sapiens) for CC(C)(C)c1cc(NC(=O)Nc2ccc(-c3cn4c(n3)sc3cc(C(=O)NCCN5CCCC5)ccc34)cc2)no1 [Compound C21, hydrochloride] ?
Result: < 10 nM

Problem: Can you look up Kd on KIT (Homo sapiens) for CC(C)(C)c1cc(NC(=O)Nc2ccc(-c3cn4c(n3)sc3cc(CC(=O)O)ccc34)cc2)no1 ?
Result: < 10 nM

Problem: Can you look up Kd on KIT (Homo sapiens) for CC(C)(C)c1cc(NC(=O)Nc2ccc(-c3cn4c(n3)sc3cc(OCCCN5CCOCC5)ccc34)cc2)no1 [Compound B7, hydrochloride] ?
Result: 10 to 100 nM

Problem: Can you look up Kd on KIT (Homo sapiens) for CC(C)(C)c1cc(NC(=O)Nc2ccc(-c3cn4c(n3)sc3cc(CCC(=O)O)ccc34)cc2)no1 ?
Result: < 10 nM

Problem: Can you look up Kd on KIT (Homo sapiens) for CC(C)(C)c1cc(NC(=O)Nc2ccc(-c3cn4c(n3)sc3cc(OC(=O)[C@@H]5CCCN5)ccc34)cc2)no1 ?
Result: 10 to 100 nM

Data origin: patent US8921546B2
